assay: method code SF-AS, from DOI: 10.1248/cpb.33.2403, PMID: 4064199
Response field label: string, one of True (logP strictly below 2) or False.

Could you please tell me whether logP recorded for `CN(C)C(=O)OCCc1ccccc1` is less than 2?
False

Determine whether this compound shows logP lower than 2 (ties excluded): `NC(=O)OCCc1c[nH]c2ccccc12`
True

For this compound, is logP lower than 2? `CCN(CC)C(=O)OCc1ccccc1`
False

Below 2 on logP? Entry `CC(C)OC(=O)N(C)C`
True

Decide: logP of `NC(=O)OCCc1ccccc1` strictly below 2?
True

Lab note: logP threshold 2. Does this compound come in strictly under it? `CNC(=O)OCc1ccccc1`
True

I'd appreciate it if you could check whether `CCN(CC)C(=O)OCCc1c[nH]c2ccccc12` has logP smaller than 2.
False

Take the compound `CCN(CC)C(=O)OCCc1ccccc1` and say whether its logP is less than 2.
False

Hello, I'm reviewing records and need to know if logP of `CN(C)C(=O)OCCCc1ccccc1` is below 2. Could you check?
False

Does the reported logP of the following compound sit strictly below 2? `CN(C)C(=O)OCCc1c[nH]c2ccccc12`
False

Consider the compound `CCC(CC)COC(=O)N(C)C` . Is its logP strictly less than 2?
False

Please indicate whether the reported logP of `NC(=O)OCCCc1cccnc1` is strictly below 2.
True

# check: logP < 2 for `CN(C)C(=O)OCCCc1cccnc1`
True

Check if logP falls below 2 for `CCN(CC)C(=O)OCC(C)C` .
False

###

test: method code SF-HPLC, from DOI: 10.1248/cpb.33.2403, PMID: 4064199
OBSERVED PROPERTY: logP
Lab note: write the figure by itself, no unit.

Using known records, supply logP for CC(Cc1ccccc1)OC(=O)N(C)C (configuration not stated)
2.6

Please report logP for the following compound: `CCC(CC)COC(=O)N(CC)CC`
3.6

###

Give measured logP for each item. Keep answers brief.
assay: method code SF-GLC, from DOI: 10.1248/cpb.33.2403, PMID: 4064199

Please give measured logP of the following entry: `CC(C)COC(N)=O`
0.98

Specify measured logP for `CC(C)COC(=O)N(C)C` .
2

###

assay: method code SF-AS, from DOI: 10.1248/cpb.33.2403, PMID: 4064199
Give logP for every item shown.
Answer with a bare number; do not write a unit.

Read the entry `NC(=O)OCc1ccc(Cl)cc1` and write its reported logP.
1.97

Look up logP of `CCC(CC)COC(N)=O` and report it.
1.98

# return recorded logP for input `NC(=O)OCCCc1ccccc1`
1.96
